Property: melting point; scope: individual molecules

Query string: # input molecule: CCC(OC)(c1ccc(OCc2ccc3ccccc3n2)c(OC)c1)c1nccs1 (centres undefined) ; wanted: its melting point
Result string: 100 to 102 °C

====

Some compounds, each annotated with its measured melting point.

Query string: What does the record list as melting point for CC1(C)SC2C(N)C(=O)N2C1NC(=O)OCC(Cl)(Cl)Cl (centres undefined) ?
Result string: 151 to 155 °C

Others:
Query string: Which measured melting point value corresponds to `Nc1nc(C(=NOCC(=O)NOCc2ccccc2)C(=O)O)cs1` ?
Result string: 170 to 172 °C

Query string: Value lookup for melting point; key = Cc1cc(C(N)=O)ncc1C(c1c(F)ccc(F)c1F)S(=O)(=O)c1ccc2ccoc2c1 (centres undefined)
Result string: 237 to 240 °C

Query string: What measured melting point goes with `Cc1ccnc2c([N+](=O)[O-])cc3c(c12)OCO3` ?
Result string: 183 to 185 °C

====

This section presents compounds with their documented melting point values.

Sample answers from the record:
Query string: Which melting point value belongs to `CCOCCCc1ccc(-c2ccc3c(c2)C=C(C(=O)Nc2ccc(CN(C)C4CCOCC4)cc2)CCS3(=O)=O)cc1` ?
Result string: 217 to 219 °C

Query string: melting point lookup needed for COc1cc2c(cc1OC)C(C(S)(C#N)CC(=O)O)=NCC2 (stereo not given) , thanks.
Result string: 173 to 175 °C

Query string: Fill in: melting point of `Cc1nc(OC[C@@H]2COC(C)(C)O2)c(C#N)c(N2CCc3ccccc3CC2)n1` is ___
Result string: 110 to 112 °C

Query string: Returns the measured melting point for the input compound. Input: `Cc1nc2sccn2c(=O)c1Br`
Result string: 127 to 129 °C

More entries:
Query string: Could you tell me which melting point is on file for `CC(=O)Nc1ccc(-c2ccc3nc(-c4cccnc4N)n(-c4ccc(CN)cc4)c3n2)cc1` ?
Result string: 245 to 248 °C

====

observable: melting point

Use these answered entries as a reference point.
Query string: Item under review: `c1ccc(-c2nc(-c3ccc(OCCCn4ccnc4)cc3)no2)cc1` . Reported melting point?
Result string: 132 to 133 °C

Query string: # query: melting point of entry `O=C1CCC(c2ccccc2Cl)=NN1`
Result string: 114 to 116 °C

Query string: Can you look up the measured melting point of `COc1cc2oc(=O)c(CCN3CCN(c4ccccc4OC)CC3)c(C)c2cc1O` for me?
Result string: 235 to 237 °C

Query string: Return reported melting point; argument: `CCOC(=O)CCc1ccc(C)nc1`
Result string: 36 to 37 °C

Query string: What measured melting point goes with CC(C)(C)OC(=O)C(ON1C(=O)c2ccccc2C1=O)c1ccccc1 (stereo unspecified) ?
Result string: 121 to 122 °C

Query string: Query (compound): `Cn1cc(C(=O)Nc2ccccc2-c2cccc(C#N)c2)c(C(F)(F)F)n1` ; field requested: melting point
Result string: 76 to 78 °C

Query string: Param item = `CC(C)(C)N1C[C@H](O)C[C@H]1C(=O)NC(=O)OCc1ccccc1` ; retrieve measured melting point.
Result string: 128 to 130 °C

Query string: So what's the measured melting point for this one? `Fc1ccc(N2CCN(Cc3cn4cc(C(F)(F)F)cc(Cl)c4n3)CC2)cc1`
Result string: 91 to 97 °C

Next:
Query string: GET /values?readout=melting point&item= CCNC(=S)NS(=O)(=O)c1cc2c(cc1OC)OCCC2CNC(=O)c1cc(F)ccc1OC (stereo unspecified)
Result string: 207 °C

Query string: I have this compound here, `Cc1cc(C(=O)c2[nH]c(=O)[nH]c(=O)c2C(C)C)cc([N+](=O)[O-])c1` , and I need its recorded melting point.
Result string: 124 to 125 °C

Query string: Would you mind telling me what melting point value was observed for `O=C(CBr)Nc1ccc(I)cc1` ?
Result string: 185 °C

Query string: For `COCc1c(C(=O)OC)ncc2[nH]c3ccccc3c12` , what is its reported melting point?
Result string: 134 to 135 °C

Query string: Could you share which melting point value was measured for COc1ccc(Oc2ccc(C(=O)NC(C(=O)O)C(C)C)cc2)cc1 (stereo unspecified) ?
Result string: 156 °C

Query string: Requested field: melting point. Item: `Cc1ccc(S(=O)(=O)N(c2ccc(Cl)cc2[N+](=O)[O-])C(C)C)cc1`
Result string: 112 to 114 °C

Query string: Entry CCOC(=O)/C=C/c1cn(-c2ccc(C(F)(F)F)cn2)nc1C(C)CC (stereo unspecified) : reported melting point = ?
Result string: 75 to 76 °C

Query string: Field request: melting point | item: `CC(C)(C)c1cc(-c2csc(SCC(=O)O)n2)cc(C(C)(C)C)c1O`
Result string: 158 to 159 °C

Query string: State the recorded melting point for this entry: CC(=O)C1CCC2C3CCC4=CC(=O)CCC4(C)C3C(Cl)CC12C (stereo unspecified)
Result string: 185 to 188 °C

Query string: Quick one: melting point of `CCCN1CC(c2cccc(F)c2)=C(c2ccc(S(N)(=O)=O)cc2)C1=O` ?
Result string: 188 to 190 °C

Query string: Which melting point value is on record for `Fc1ccc(-c2csc(-c3cn([C@H]4CN5CCC4CC5)nn3)c2)cn1` ?
Result string: 136 °C

Query string: What does the record list as melting point for `O=C1C[C@]2(CCCC[C@H]2Cc2ccccc2)S(=O)(=O)CCN1Cc1cccnc1` ?
Result string: 220 to 221 °C

Query string: What value of measured melting point is listed for `Cc1c([N+](=O)[O-])c(=O)n(-c2cc(C(=O)OC(C)C)c(Cl)cc2F)c(=O)n1C` ?
Result string: 129 to 131 °C

Query string: Fill in: melting point of `Cc1nc(-c2ccc(C(=O)N3Cc4cccn4Cc4ccccc43)cc2)n(C)n1` is ___
Result string: 193 to 195 °C

Query string: // melting point lookup, key: CC1C(=O)Oc2c1cccc2S(=O)(=O)c1ccccc1Cl (stereo unspecified)
Result string: 94 to 96 °C

Query string: Which measured melting point value corresponds to `C=C(C)Cn1c(=O)n(C)c(=O)c2c(SCCO)n(Cc3cccc4ccccc34)nc21` ?
Result string: 135 to 137 °C

Query string: Please look up its melting point: COc1c(NC(=O)c2ccccc2)cccc1C(=O)NC1C(Cl)=CC(C(F)(c2ccc(Cl)cc2)C(F)(F)F)=CC1(Cl)OC (stereo unspecified)
Result string: 163 to 166 °C

Query string: Dear colleague, I am looking for the recorded melting point of the following compound: `Fc1ccc2c(c1)CCc1cccnc1C2=C1CCNCC1`
Result string: 134 °C

Query string: # melting point lookup, item Cc1cccc2nc3n(c12)CC(c1ccccn1)S3 (stereo unspecified)
Result string: 128 to 130 °C

Query string: Given NC(C(=O)c1ccccc1)[N+](=O)[O-] (stereo unspecified) , state its recorded melting point.
Result string: 110 to 111 °C

Query string: Record request: melting point value, item `O=C(O)c1cn(Cc2ccccc2)c2cc(Cl)c(F)cc2c1=O`
Result string: 250 °C

Query string: Tell me the measured melting point of COCc1cc2c(NC(=S)N3Cc4ccccc4CC3CCO)cccc2cn1 (racemic) , please.
Result string: 152 °C

Query string: Could you tell me which melting point is on file for `CCOC(=O)Nc1ncc(-c2nc3ccccc3c(=O)n2-c2cccc(OC)c2)s1` ?
Result string: 235 to 236 °C
